Provenance of the data: ChEMBL document CHEMBL1201862

# Test system: SW-620
# TEST_DESCRIPTION: NCI tumour cell line growth inhibition, 48 h
Calls of active or inactive are those of the source. No stated cut-off is given here; in the data, active = GI50 up to about 1.1 µM and inactive = higher.
Possible outcomes: active, inactive

MOLECULE	LABEL_CLASS
O=C(CC(C(=O)c1cccs1)c1ccc2c(c1)OCO2)c1ccccc1 (stereo not given)	inactive
COC(=O)C(C)Oc1ccc(O)cc1 (stereo not given)	inactive
CC(C)C(=O)/C=C/c1ccc(Br)cc1	inactive
CCCCCCCCCCCC[C@@H](O)[C@H]1CC[C@H]([C@H](O)CC[C@H](O)[C@@H]2CC[C@@H](CCCCCCCC3=C[C@H](C)OC3=O)O2)O1	inactive
O=C1/C(=C/c2ccc(Oc3ccccc3)cc2)N=C(c2ccccc2)N1c1ccc(S(=O)(=O)Nc2nccs2)cc1	inactive
COP(C)(=O)/C(Cc1ccccc1)=N\O (stereo not given)	inactive
O=S1(=O)CS(=O)(=O)OCCO1	inactive
C=C1Oc2nc3ccccc3c(=O)n2C1(C)C	inactive
O=c1c2ccccc2nc(-c2ccc(Br)cc2)n1NC1OC(CO)C(O)C(O)C1O (stereo not given)	inactive
COC(=O)[C@]12CC[C@H]3CC[C@H]([C@H]31)[C@H](c1ccccc1)N2	inactive
COC(=O)[C@@H](NS(=O)(=O)CC12CCC(CC1)C2(C)C)C(C)(C)C	inactive
C=C1COC(/C=C(\C)CC/C=C(\C)CCl)C1 (stereo not given)	inactive
COc1ccc(C(=O)c2cc(OC)c(OC)c(OC)c2)cc1OC	inactive
O=C(N/N=C1\C(=O)Nc2ccc(Br)cc21)/C(O)=C/C(=O)c1ccc(Cl)cc1	inactive
COc1ccc2[nH]cc(C(=O)C(=O)NC34CC5CC(CC(C5)C3)C4)c2c1	inactive
O=C(Nc1ccc2[nH]c(C(=O)N3CC(CCl)c4ccc([N+](=O)[O-])cc43)cc2c1)c1cc2ccccc2o1 (stereo not given)	inactive
Cc1ccc(NC(=O)/C(=N\NC(N)=O)c2c(O)c3ccccc3[nH]c2=O)cc1	inactive
C(=C\c1csnn1)/c1cccnc1	inactive
O=C(CC1=Nc2nnc(-c3nnc4n3C(=O)C(CC(=O)C3CC3)=N4)n2C1=O)C1CC1	inactive
COC1CC(OS(=O)(=O)c2ccc([N+](=O)[O-])cc2)C(OC(=O)c2ccccc2)C(C)O1 (stereo not given)	inactive
CN(Cc1cnc2nc(N)nc(N)c2n1)c1ccc(C(=O)N[C@@H](CCS(=O)(=O)O)C(=O)O)cc1	active
CCOc1cc2c(cc1O)CC[C@@H]1[C@@H]2CC[C@]2(C)C(N)CC[C@@H]12 (stereo not given in full)	inactive
Cc1ccc([N+](=O)[O-])c2c(NCCC[N+](C)(C)[O-])ccnc12	inactive
COc1cc2c(cc1O)c(O)cc1c3cc(OC)c(OC)cc3c[n+](C)c21	inactive
Cc1c(C(=O)/C=C/c2cccc3ccccc23)[n+]([O-])c2ccccc2[n+]1[O-]	inactive
N#C/C(=C\c1ccc(O)c(O)c1)C(=O)NC1CCC(CC2CCC(NC(=O)/C(C#N)=C/c3ccc(O)c(O)c3)CC2)CC1 (stereo not given)	active
BrP(NC1CCCCCC1)(c1ccccc1)(c1ccccc1)c1ccccc1	inactive
Cc1cc(OP2(=O)NCc3ccncc3O2)ccc1Cl (stereo not given)	inactive
CCC1=C(C(C)=O)[C@@H]2CCCCC(C(=O)OC)[C@@H]2C1=O (stereo not given in full)	inactive
CC[C@]12C=CCN3CCC4(c5cc([C@@]6(C(=O)OC)CC7CN(CCc8c6[nH]c6ccccc86)CC6CCCCC67)c(OC)cc5N(C)C4[C@](O)(C(=O)OC)C1OC(C)=O)[C@@H]32 (stereo not given in full)	active
Cc1ccc2nc3c(=O)[nH]c(=O)nc-3n(C)c2c1C	inactive
CCOC(=O)CC[C@H](NC(=O)c1nc[nH]c1/N=N/N(C)C)C(=O)OCC	inactive
Cc1nc2ccc(S(=O)(=O)Nc3nccs3)cc2c(=O)n1NS(=O)(=O)c1nccs1	inactive
O=C(OCc1ccccc1)N1N=NC2C3CC(OCc4ccccc4)(OCc4ccccc4)C(O3)C21 (stereo not given)	inactive
CC(C(=O)NCCNC(=O)CCC(=O)N(C)O)C(=O)NCCNC(=O)CCC(=O)N(C)O	inactive
CCCCCCCCCCC(O)CCCCCCC(=O)O (stereo not given)	inactive
C[C@H](CCC1SC1(C)C)C1CCC2(C)C3=C(CC[C@]12C)[C@@]1(C)CC[C@H](O)C(C)(C)C1CC3 (stereo not given in full)	inactive
CCCc1cc(=O)oc2c3c(c4c(c12)OC(C)(C)CC4)O[C@@H](C)[C@H](C)[C@H]3O	inactive
CNc1nc(N)cc(O)n1	inactive
CC(C)Oc1cccc(N2C(n3ccnc3)=Nc3ccncc3S2(=O)=O)c1	inactive
